# measured.target: UniProtKB P29276
# Sequence (whole entry): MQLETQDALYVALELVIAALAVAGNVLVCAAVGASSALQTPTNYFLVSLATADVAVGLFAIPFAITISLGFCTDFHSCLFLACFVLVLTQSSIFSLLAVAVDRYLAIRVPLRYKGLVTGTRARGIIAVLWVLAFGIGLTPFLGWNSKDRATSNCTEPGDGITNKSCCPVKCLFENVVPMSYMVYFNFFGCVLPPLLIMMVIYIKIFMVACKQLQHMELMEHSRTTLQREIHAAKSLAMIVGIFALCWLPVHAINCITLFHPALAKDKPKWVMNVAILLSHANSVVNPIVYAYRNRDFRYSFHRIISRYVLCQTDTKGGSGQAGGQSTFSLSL
# test.name: Agonist activity as cAMP production in CHO cells expressing rat Adenosine A2B receptor at 100 uM
# Format: functional, cell-based
Listing: Activity of selected molecules

molecule	Activity / %
CCCCCNC(=O)[C@H]1O[C@@H](n2cnc3c(N)ncnc32)[C@H](O)[C@@H]1O	3.4
C#CC(O)[C@H]1O[C@@H](n2cnc3c(N)ncnc32)[C@H](O)[C@@H]1O (some centres undefined)	10
Nc1ncnc2c1ncn2[C@@H]1O[C@H](C(=O)NC2CCCCC2)[C@@H](O)[C@H]1O	1.9

----------
# measured.target: Adenosine receptor A1 (Rattus norvegicus)
# Sequence (P25099 whole entry): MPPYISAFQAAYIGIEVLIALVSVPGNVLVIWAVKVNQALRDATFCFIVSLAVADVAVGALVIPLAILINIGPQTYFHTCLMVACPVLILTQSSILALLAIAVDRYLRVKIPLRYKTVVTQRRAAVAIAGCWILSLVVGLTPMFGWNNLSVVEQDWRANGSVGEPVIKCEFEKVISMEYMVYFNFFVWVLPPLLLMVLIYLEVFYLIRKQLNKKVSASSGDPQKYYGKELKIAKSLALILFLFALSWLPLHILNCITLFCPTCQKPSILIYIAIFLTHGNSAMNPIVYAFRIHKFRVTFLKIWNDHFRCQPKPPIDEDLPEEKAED
Reported Ki values follow for various molecules
quantity.measured: Ki

molecule	readout.value
CCCCCNC(=O)[C@H]1O[C@@H](n2cnc3c(N)ncnc32)[C@H](O)[C@@H]1O	979 nM
Nc1ncnc2c1ncn2[C@@H]1O[C@H](C(=O)NC2CCCCC2)[C@@H](O)[C@H]1O	5020 nM
C#CC(O)[C@H]1O[C@@H](n2cnc3c(N)ncnc32)[C@H](O)[C@@H]1O (stereo partly drawn)	897 nM

----------
# measured.target: Adenosine receptor A2a (Rattus norvegicus)
# Sequence (P30543 whole entry): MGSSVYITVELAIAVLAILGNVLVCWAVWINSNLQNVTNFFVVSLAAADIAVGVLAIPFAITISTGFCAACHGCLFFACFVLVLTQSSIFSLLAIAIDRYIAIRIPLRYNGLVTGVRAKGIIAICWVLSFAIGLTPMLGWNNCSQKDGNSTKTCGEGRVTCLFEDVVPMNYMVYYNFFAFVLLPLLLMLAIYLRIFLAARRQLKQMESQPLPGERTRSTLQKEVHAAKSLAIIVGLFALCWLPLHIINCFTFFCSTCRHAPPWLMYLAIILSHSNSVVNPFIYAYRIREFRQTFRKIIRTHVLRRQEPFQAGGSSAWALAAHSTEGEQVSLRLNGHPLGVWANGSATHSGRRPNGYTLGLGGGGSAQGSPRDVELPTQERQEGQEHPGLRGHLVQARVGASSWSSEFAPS
quantity.measured: Ki (µM)

smi	readout.value
Nc1ncnc2c1ncn2[C@@H]1O[C@H](C(=O)NC2CCCCC2)[C@@H](O)[C@H]1O	2.5
